- EXPERIMENT DESCRIPTION: Distribution after oral administration (HPLC)
- Type: in vivo, rat
- TEST CONTEXT: rat; liver, oral 50 mg/kg, 60 min.; read-out: Mean tissutal concentration
OBSERVABLE: concentration at 1 h (ng/g)
Express the result in ng/g but write the number alone.

The compound listed as `COC1=C(OC)C(=O)C(CC=C(C)CCC=C(C)CCC=C(C)CCC=C(C)CCC=C(C)CCC=C(C)CCC=C(C)CCC=C(C)CCC=C(C)CCC=C(C)C)=C(C)C1=O` shows concentration at 1 h equal to 7100

====

- EXPERIMENT DESCRIPTION: Distribution after parenteral (intramuscular) administration (HPLC)
- Type: in vivo, rat
- TEST CONTEXT: rat, im; plasma, intramuscular 20 mg/kg, 30 min.; read-out: Mean plasmatic concentration
- Experimental: Rats were treated with 20 mg/kg of Coenzyme Q10 by intramuscular injection and the concentration of the active compound was determined by HPLC after 30 min., 60 min. and 6 hours.
OBSERVABLE: concentration at 0.5 h (ng/mL)
Express the result in ng/mL but write the number alone.

The compound listed as `COC1=C(OC)C(=O)C(CC=C(C)CCC=C(C)CCC=C(C)CCC=C(C)CCC=C(C)CCC=C(C)CCC=C(C)CCC=C(C)CCC=C(C)CCC=C(C)C)=C(C)C1=O` shows concentration at 0.5 h equal to 270

Data provenance: patent US4654373A
